Measured GI50 by item
Tested on: EKVX
RUN DESCRIPTION: NCI tumour cell line growth inhibition, 48 h
The source made the active and inactive calls. Rule as the data show it: active = GI50 up to about 1.1 µM and inactive = higher.

COMPOUND	GI50
O=P(O)(O)c1ccc2c(c1)OCCOCCOCCOCCO2	> 100 µM (inactive)
O=[PH](O)c1cc2c3ccccc3ccc2c2ccccc12	> 100 µM (inactive)
N=C/N=C/C(=S)O[C@@H]1C(=O)N2CCC[C@@]23CCCC[C@@H]13	> 12.5 µM (inactive)
CCN1CCC(O)(C(C(=O)O)c2ccccc2)CC1 (stereo not drawn)	> 100 µM (inactive)
CCOc1ccccc1NC(=O)C(=O)Cc1nc2ccccc2s1	> 100 µM (inactive)
O=C1NC(Cc2ccc(O)cc2)C(=O)N2CCCC12 (stereo not drawn)	> 100 µM (inactive)
O/N=N/c1ccc(-c2ccccc2)cn1	7.5 µM (inactive)
COc1cccc2c1OC(c1ccc(Cl)cc1)C([N+](=O)[O-])=C2 (stereo not drawn)	11.7 µM (inactive)
